Where do these numbers come from? They come from patent US20210238170A1.

TGT: human SGLT2 (Homo sapiens, UniProt P31639)
Construct: expressed in transfected cells
Sequence (P31639 whole entry): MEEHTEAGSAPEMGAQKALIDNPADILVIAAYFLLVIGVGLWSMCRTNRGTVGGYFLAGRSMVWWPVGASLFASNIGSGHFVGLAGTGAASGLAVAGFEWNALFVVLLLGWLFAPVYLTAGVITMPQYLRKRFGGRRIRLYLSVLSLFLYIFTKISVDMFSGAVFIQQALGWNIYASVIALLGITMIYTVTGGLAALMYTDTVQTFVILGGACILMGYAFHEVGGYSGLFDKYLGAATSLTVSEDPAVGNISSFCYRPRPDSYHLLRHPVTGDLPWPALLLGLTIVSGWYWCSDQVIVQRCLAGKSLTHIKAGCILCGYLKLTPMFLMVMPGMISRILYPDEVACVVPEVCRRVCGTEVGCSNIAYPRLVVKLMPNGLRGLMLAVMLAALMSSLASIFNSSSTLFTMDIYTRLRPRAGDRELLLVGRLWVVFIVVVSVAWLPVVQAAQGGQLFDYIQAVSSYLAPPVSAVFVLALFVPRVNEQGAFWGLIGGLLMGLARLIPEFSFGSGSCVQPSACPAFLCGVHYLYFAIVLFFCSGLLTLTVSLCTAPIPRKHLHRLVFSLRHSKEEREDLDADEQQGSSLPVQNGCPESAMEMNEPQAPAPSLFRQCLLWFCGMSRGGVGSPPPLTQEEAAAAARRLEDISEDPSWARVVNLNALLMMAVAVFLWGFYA
METHOD_NOTES: SGLT2 in vitro assay: Na-dependent 14C-AMG uptake in CHO-K1 cells stably expressing human SGLT2
Format: cell-based
SETUP_CONDITIONS: @ 0.3 μM; CHO-K1 cells stably expressing human SGLT2; 14C-AMG uptake; read-out: SGLT2 % Inh @ 0.3 μM
inhibition at 0.3 µM: recorded values
Answer format: numeric, % implied, no suffix.

Consider the following illustrative entries.
COc1cc(C)c(Cc2ccc(Cl)s2)cc1[C@@H]1O[C@H](CO)C(F)(F)[C@H](O)[C@H]1O; 81.1
OC[C@H]1O[C@@H](c2cc(Cc3ccc4c(c3)OCCO4)c3c(c2O)OCC3)[C@H](O)[C@@H](O)C1(F)F; 74.6
OC[C@H]1O[C@@H](c2cc(Cc3ccc(C4CC4)cc3)c(C3CC3)cc2O)[C@H](O)[C@@H](O)C1(F)F; 82.8
Cc1cc(O)c([C@@H]2O[C@H](CO)C(F)(F)[C@H](O)[C@H]2O)cc1Cc1ccc(Cl)s1; 82.4
COc1cc(Cl)c(Cc2cc3ccccc3s2)cc1[C@@H]1O[C@H](CO)C(F)(F)[C@H](O)[C@H]1O; 48.6
OC[C@H]1O[C@@H](c2cc(Cc3ccc(Cl)cc3)c(Cl)cc2O)[C@H](O)[C@@H](O)C1(F)F; 64.4
COc1ccc(Cc2cc([C@@H]3O[C@H](CO)C(F)(F)[C@H](O)[C@H]3O)c(O)cc2OC)cc1; 76.3
COc1cc(O)c([C@@H]2O[C@H](CO)C(F)(F)[C@H](O)[C@H]2O)cc1Cc1ccc2c(c1)CCCO2; 90.1
CCc1cc(OC)c([C@@H]2O[C@H](CO)C(F)(F)[C@H](O)[C@H]2O)cc1Cc1ccc(C2CC2)cc1; 88
COc1cc(Cl)c(Cc2ccc(Cl)cc2)cc1[C@@H]1O[C@H](CO)C(F)(F)[C@H](O)[C@H]1O; 77.6

**Query** // inhibition at 0.3 µM lookup, key: "Cc1cc(OCC#N)c([C@@H]2O[C@H](CO)C(F)(F)[C@H](O)[C@H]2O)cc1Cc1cc2ccccc2s1"
**Result** 85.4

**Query** // inhibition at 0.3 µM lookup, key: "COc1cc(OC)c([C@@H]2O[C@H](CO)C(F)(F)[C@H](O)[C@H]2O)cc1Cc1ccc2c(c1)OCCO2"
**Result** 84.2

**Query** // inhibition at 0.3 µM lookup, key: "CCc1ccc(Cc2cc([C@@H]3O[C@H](CO)C(F)(F)[C@H](O)[C@H]3O)c(O)cc2CC)cc1"
**Result** 88.7

**Query** // inhibition at 0.3 µM lookup, key: "COc1c([C@@H]2O[C@H](CO)C(F)(F)[C@H](O)[C@H]2O)cc(Cc2ccc3c(c2)OCCO3)c2c1CCO2"
**Result** 84.4

----------
TGT: human SGLT1 (Homo sapiens)
Construct: expressed in transfected cells
Sequence (P13866 whole entry): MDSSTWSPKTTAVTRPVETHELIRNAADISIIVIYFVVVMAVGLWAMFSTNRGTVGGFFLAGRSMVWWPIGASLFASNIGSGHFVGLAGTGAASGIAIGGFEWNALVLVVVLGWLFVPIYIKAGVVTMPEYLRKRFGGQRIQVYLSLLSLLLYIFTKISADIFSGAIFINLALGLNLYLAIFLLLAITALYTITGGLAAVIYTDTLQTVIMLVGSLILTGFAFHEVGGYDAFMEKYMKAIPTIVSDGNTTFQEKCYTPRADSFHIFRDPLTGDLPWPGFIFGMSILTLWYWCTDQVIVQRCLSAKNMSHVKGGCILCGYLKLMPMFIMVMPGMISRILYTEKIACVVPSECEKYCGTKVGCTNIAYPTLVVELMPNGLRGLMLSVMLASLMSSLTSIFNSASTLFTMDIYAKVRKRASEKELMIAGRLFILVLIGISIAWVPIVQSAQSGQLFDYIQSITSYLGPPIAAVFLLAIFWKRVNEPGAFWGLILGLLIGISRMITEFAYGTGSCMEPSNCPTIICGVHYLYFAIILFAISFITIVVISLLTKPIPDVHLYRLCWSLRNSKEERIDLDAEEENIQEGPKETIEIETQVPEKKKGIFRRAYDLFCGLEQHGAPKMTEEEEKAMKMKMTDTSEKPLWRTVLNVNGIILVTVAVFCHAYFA
METHOD_NOTES: SGLT1 in vitro assay: Na-dependent 14C-AMG uptake in CHO-K1 cells stably expressing human SGLT1
Type: cell-based
SETUP_CONDITIONS: @ 0.3 μM; CHO-K1 cells stably expressing human SGLT1; 14C-AMG uptake; read-out: SGLT1 % Inh @ 0.3 μM
Binary call on inhibition at 0.3 µM: True from 80% upward, False beneath that.

Some solved entries appear below for comparison.
Cc1cc(O)c([C@@H]2O[C@H](CO)C(F)(F)[C@H](O)[C@H]2O)cc1Cc1ccc(C2CC2)cc1; False
CCc1cc(O)c([C@@H]2O[C@H](CO)C(F)(F)[C@H](O)[C@H]2O)cc1Cc1ccc(OC)cc1; False

Consider the record given below.
**Query** Quick check, inhibition at 0.3 µM >= 80%? "OC[C@H]1O[C@@H](c2cc(Cc3ccc4c(c3)OCC4)c(Cl)cc2O)[C@H](O)[C@@H](O)C1(F)F"
**Result** True
